Lab note: IC50 readings collected with MAO-A (Homo sapiens) for the following compounds.
Sequence (P21397 whole entry): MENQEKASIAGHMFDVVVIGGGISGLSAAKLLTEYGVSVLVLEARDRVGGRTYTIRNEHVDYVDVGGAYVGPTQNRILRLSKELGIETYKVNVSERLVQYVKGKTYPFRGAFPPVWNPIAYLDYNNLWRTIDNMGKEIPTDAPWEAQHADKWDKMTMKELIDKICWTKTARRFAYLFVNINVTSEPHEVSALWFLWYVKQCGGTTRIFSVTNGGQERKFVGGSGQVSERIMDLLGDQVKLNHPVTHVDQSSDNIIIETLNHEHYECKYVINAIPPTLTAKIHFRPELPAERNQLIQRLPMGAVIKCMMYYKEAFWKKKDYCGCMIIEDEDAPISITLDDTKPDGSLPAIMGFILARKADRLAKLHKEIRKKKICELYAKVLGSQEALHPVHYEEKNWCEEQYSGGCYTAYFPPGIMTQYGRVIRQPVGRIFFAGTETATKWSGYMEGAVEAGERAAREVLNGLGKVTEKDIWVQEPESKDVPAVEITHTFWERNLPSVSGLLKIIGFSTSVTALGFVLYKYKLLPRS
Where a name gives a salt, the structure may show the parent alone.
ATTRIBUTE MEASURED: IC50

>>> meas_value("NC/C(=C\\F)Cn1cc2c(c1)C(=O)N(C1CC1)CC2")
"> 100 µM"
>>> meas_value("CC(C)(C)N1CCc2nn(C/C(=C/F)CN)cc2C1=O [Compound A7 hydrochloride]")
"> 100 µM"
>>> meas_value("CCn1ccc2nn(C/C(=C/F)CN)cc2c1=O [Compound A28 hydrochloride]")
"> 100 µM"
>>> meas_value("CC(C)(C)CN1CCc2nn(C/C(=C/F)CN)cc2C1=O [Compound A37 hydrochloride]")
"> 100 µM"
>>> meas_value("NC/C(=C\\F)Cn1ncc2c1CCN(C1CC1)C2=O [Compound A2 hydrochloride]")
"> 100 µM"

----------
TARGET DESC: rhVAP-1 (Homo sapiens, UniProt Q16853)
Construct: purchased PeproTech
Sequence (Q16853 27-763 limits assumed): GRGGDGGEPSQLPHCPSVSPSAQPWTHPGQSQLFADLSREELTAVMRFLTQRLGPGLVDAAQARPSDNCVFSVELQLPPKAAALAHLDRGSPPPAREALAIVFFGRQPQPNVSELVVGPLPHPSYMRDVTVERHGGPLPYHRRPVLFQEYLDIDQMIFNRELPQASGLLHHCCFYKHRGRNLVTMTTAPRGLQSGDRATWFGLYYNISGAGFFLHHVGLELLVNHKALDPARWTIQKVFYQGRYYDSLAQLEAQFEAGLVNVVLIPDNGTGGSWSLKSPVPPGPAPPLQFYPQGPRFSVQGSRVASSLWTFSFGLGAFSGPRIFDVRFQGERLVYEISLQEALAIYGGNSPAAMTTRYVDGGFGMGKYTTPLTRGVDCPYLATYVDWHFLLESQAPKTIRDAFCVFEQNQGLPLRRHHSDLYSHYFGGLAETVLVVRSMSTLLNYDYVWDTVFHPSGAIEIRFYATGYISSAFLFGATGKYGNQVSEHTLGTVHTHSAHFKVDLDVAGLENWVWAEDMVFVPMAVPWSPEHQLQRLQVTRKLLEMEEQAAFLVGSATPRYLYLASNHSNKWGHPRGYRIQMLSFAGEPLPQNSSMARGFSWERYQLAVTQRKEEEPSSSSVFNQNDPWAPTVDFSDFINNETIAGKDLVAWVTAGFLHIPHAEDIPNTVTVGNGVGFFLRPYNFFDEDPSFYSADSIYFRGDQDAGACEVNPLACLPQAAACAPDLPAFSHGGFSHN
ASSAY METHOD TEXT: Inhibitory activity against rhVAP-1 enzyme (Biological Example 2)
Assay type: biochemical
CONDITIONS USED: Table 2; benzylamine substrate, Amplex Red/HRP
From the text: 1. Inhibitory Activity of Compounds Against rhVAP-1 Enzyme (1) Instrument, Consumable and Reagent Microplate reader (Perkin Elmer, Nivo 5S), black unclear-bottom 96-well plate (Corning) and rhVAP-1 (PeproTech) (2) Preparation of Concentration Gradient Compound Solutions […] V: fluorescence change rate; Ft: fluorescence reading at time point t; F0: initial fluorescence reading; Time: duration t; Vcmpd: fluorescence change rate of tested compound; Vmax: Max hole fluorescence change rate. […]
pIC50: −log10 of the molar value. Where a name gives a salt, the structure may show the parent alone.
ATTRIBUTE MEASURED: pIC50

>>> meas_value("COC1CCN(C(=O)c2ccc3c(ccn3C/C(=C/F)CN)c2)CC1 [Compound C14 hydrochloride]")
7.30
>>> meas_value("NC/C(=C\\F)Cn1cc(C(=O)NC2CC2)cn1 [Compound B4 hydrochloride]")
7.29
>>> meas_value("NC/C(=C\\F)Cn1cc2c(n1)CCN(C1CCCC1)C2=O [Compound A10 hydrochloride]")
7.40

----------
TARGET DESC: rhVAP-1 (Homo sapiens, UniProt Q16853)
Construct: purchased PeproTech
ASSAY METHOD TEXT: Inhibitory activity against rhVAP-1 enzyme (Biological Example 2)
Assay type: biochemical
CONDITIONS USED: Table 2; benzylamine substrate, Amplex Red/HRP
Structures can show the parent of a compound that is named as a salt.
ATTRIBUTE MEASURED: IC50 (nM)

>>> meas_value("Cl.NC/C(=C\\F)Cn1cc2c(c1Cl)CCN(C1CC1)C2=O [Compound A42 hydrochloride]")
17
>>> meas_value("NC/C(=C\\F)Cn1ccc2cc(C(=O)N3CCC3)ccc21 [Compound C13 hydrochloride]")
67
>>> meas_value("NC/C(=C\\F)Cn1cc2c(=O)n(C3CC3)ccc2n1 [Compound A41]")
8
